Assay: chemical genetic growth profiling, strain panel (AID 1159580);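 also: tested at 20 µM; growth read once vehicle control cultures reached saturation at 30 °C; 1 = growth at the plate median or of vehicle wells; lower values mean less growth of the strain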
Conditions: S. cerevisiae deletion strains, growth OD, locus YDR363W, strain ESC2, active compounds read low
About 2,000 (36%) of roughly 5,500 compounds were called active. About 18% were inconclusive and are not listed. The list shows a part of the results.
recorded.metric: normalized growth
Form field (numeric): enter value without unit.

>  <molecule>
NC(=O)c1cc(N2CC2)c([N+](=O)[O-])cc1[N+](=O)[O-]

>  <normalized growth>
0.993

$$$$
>  <molecule>
O=C1NCN(c2ccccc2)C12CCN(CCCC(c1ccc(F)cc1)c1ccc(F)cc1)CC2

>  <normalized growth>
0.992

$$$$
>  <molecule>
N#CC(=C(\N)Sc1ccccc1N)/C(C#N)=C(/N)Sc1ccccc1N

>  <normalized growth>
1

$$$$
>  <molecule>
COC(=O)C(N)Cc1ccc(Cl)cc1 (configuration not stated)

>  <normalized growth>
0.976

$$$$
>  <molecule>
O=C(O)CN(CCN(CC(=O)O)CC(=O)O)CCN(CC(=O)O)CC(=O)O

>  <normalized growth>
0.194

$$$$

Reported normalized growth for Nc1nc2c(ncn2COC(CO)CO)c(=O)[nH]1 was 1.03

Reported normalized growth for Cc1cc(N)c2ccccc2[n+]1CCCCCCCCCC[n+]1c(C)cc(N)c2ccccc21 was 0.0798

----------
Experiment: chemical genetic growth profiling, strain panel (AID 1159580)
Conditions: S. cerevisiae deletion strains, growth OD, locus YFR028C, strain CDC14, active compounds read low
The campaign covered roughly 5,500 compounds. About 2,000 (36%) were called active. Not shown: some 18% with an inconclusive outcome. The list shows a part of the results.
Parameter normalized growth: see the listing below.
Form field (numeric): enter value without unit.

>  <compound>
Clc1cccc(Cl)c1C1CC(c2ccccc2)=Nc2ccccc2S1 (configuration not stated)

>  <normalized growth>
0.985

$$$$
>  <compound>
O=C(NNc1cc(C(F)(F)F)cc(C(F)(F)F)c1)c1cnc2n(c1=O)CCS2

>  <normalized growth>
0.983

$$$$
>  <compound>
O=C1Nc2ccccc2/C1=C\c1c[nH]c2ccccc12

>  <normalized growth>
0.753

$$$$
>  <compound>
O=C(Nc1ccccc1C(=O)O)OCC1c2ccccc2-c2ccccc21

>  <normalized growth>
0.979

$$$$
>  <compound>
O=c1cc(CSc2ccc(Cl)cc2)c2ccc(O)cc2o1

>  <normalized growth>
0.954

$$$$

Reported normalized growth for Cc1cc(Br)c(O)c(/C=N\NC(=S)NC(C)(C)C)c1 was 0.975

Reported normalized growth for CN(C)/C=C1\CSc2ccc(Cl)cc2C1=O was 0.942

Reported normalized growth for COc1ccc(Br)c(C(=O)/C(C#N)=C/c2cccs2)c1 was 0.913

Reported normalized growth for O=C(Nc1ccc(SC(F)(F)F)cc1)Nc1ccc(Oc2cccc(C(F)(F)F)c2)nc1 was 0.999

Reported normalized growth for CC(C)(C)NC(=S)N/N=C\c1cc(Br)c(O)c(Br)c1 was 0.952

Reported normalized growth for O=S(=O)(Nc1ccccc1Sc1c(Cl)cncc1Cl)c1ccc(Cl)cc1 was 0.986

Reported normalized growth for N#C/C(N=Cc1cc(Cl)cc(Cl)c1O)=C(\C#N)N=Cc1cc(Cl)cc(Cl)c1O was 0.931

----------
Test: chemical genetic growth profiling, strain panel (AID 1159580)
Conditions: S. cerevisiae deletion strains, growth OD, locus YHR094C, strain hxt1, active compounds read low
Hit rate of the full screen: of about 5,500 compounds, about 2,000 (36%) were called active. Another 18% or so got no clear call; they are omitted. This is one part of the list.
recorded.metric: normalized growth

Reported normalized growth for C[C@]12CCC(=O)C=C1CCc1ccc(O)cc12 was 0.993 (inactive)

Reported normalized growth for NC(=O)c1cc([N+](=O)[O-])cc([N+](=O)[O-])c1 was 0.954 (inactive)

Reported normalized growth for COc1ccc(-c2cc(=O)c3c(O)cc(O)cc3o2)cc1 was 0.992 (inactive)

----------
Parameter normalized growth: see the listing below.
Assay: chemical genetic growth profiling, strain panel (AID 1159580);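 also: tested at 20 µM; growth read once vehicle control cultures reached saturation at 30 °C; 1 = growth at the plate median or of vehicle wells; lower values mean less growth of the strain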
Settings: S. cerevisiae deletion strains, growth OD, locus YKL190W, strain CNB1, active compounds read low
The campaign covered roughly 5,500 compounds. About 2,000 (36%) were called active. Not shown: some 18% with an inconclusive outcome. This is one part of the list.

>  <molecule>
CSc1cc(C(F)(F)F)cc(SC)c1SC

>  <normalized growth>
0.967 (inactive)

$$$$

Reported normalized growth for Cn1c2c(c3ccccc31)/C(=N\OC(=O)c1ccc(Cl)cc1Cl)CCC2 was 1.01 (inactive)

Reported normalized growth for CCCCCC(O)C1C(=O)OC(C)C(O)/C=C/C=C/C=C/C=C/C=C(\C)C(O)CC(O)CC(O)CC(O)CC(O)CC(O)CC1O (stereo not drawn) was 1.01 (inactive)

----------
Experiment: chemical genetic growth profiling, strain panel (AID 1159580);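 also: tested at 20 µM; growth read once vehicle control cultures reached saturation at 30 °C; 1 = growth at the plate median or of vehicle wells; lower values mean less growth of the strain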
Details: S. cerevisiae deletion strains, growth OD, locus YLR371W, strain rom2, active compounds read low
The campaign covered roughly 5,500 compounds. About 2,000 (36%) were called active. Inconclusive results (about 18%) are left out. The list shows a part of the results.
recorded.metric: normalized growth

>  <compound>
CC(=O)O[C@@H]1CC2C(C)(CC[C@H](O)C2(C)C)C2CC[C@]3(C)C(=CC(=O)O[C@H]3c3ccoc3)C21C (stereo partly drawn)

>  <normalized growth>
1 (inactive)

$$$$
>  <compound>
CSc1nc(NC(C)C)nc(NC(C)C)n1

>  <normalized growth>
0.999 (inactive)

$$$$
>  <compound>
CO[C@@H]1C[C@H](O[C@H]2CC[C@]3(C)C4CC[C@]5(C)[C@@H](C6=CC(=O)OC6)CC[C@]5(O)[C@@H]4CC[C@]3(O)C2)O[C@H](C)[C@@H]1O (stereo partly drawn)

>  <normalized growth>
1.05 (inactive)

$$$$

Reported normalized growth for Cc1ccccc1N1C(=O)c2cc(S(N)(=O)=O)c(Cl)cc2NC1C (stereo not drawn) was 0.993 (inactive)

Reported normalized growth for O=c1c(O)cc([C@H]2Oc3cc(O)cc(O)c3C[C@H]2O)cc2c([C@H]3Oc4cc(O)cc(O)c4C[C@H]3O)cc(O)c(O)c12 was 0.977 (inactive)

Reported normalized growth for CC[C@@]1(O)C(=O)OCc2c1cc1n(c2=O)Cc2cc3ccccc3nc2-1 was 0.929 (inactive)

Reported normalized growth for CC(=O)O[C@@H]1CC2C(C)(C)CCC[C@]2(C)C2CC[C@]3(C)C(=CC(=O)O[C@H]3c3ccoc3)[C@@]21C (stereo partly drawn) was 1 (inactive)

Reported normalized growth for CC[C@H]1CN2CCC1C[C@@H]2[C@@H](O)c1ccnc2ccc(OC)cc12 (stereo partly drawn) was 1.01 (inactive)

Reported normalized growth for COc1nc(NC(C)C)nc(NC(C)C)n1 was 1.02 (inactive)

Reported normalized growth for CC[C@@]1(O)C(=O)OCc2c1cc1n(c2=O)Cc2cc3cc(O)ccc3nc2-1 was 0.994 (inactive)

Reported normalized growth for Nc1nc(/C(=C/CC(=O)O)C(=O)N[C@@H]2C(=O)N3C(C(=O)O)=CCS[C@H]23)cs1 was 0.995 (inactive)

Reported normalized growth for CC1(C)C(=O)CC[C@@]2(C)C1C[C@@H](O)[C@@]1(C)C3=CC(=O)O[C@@H](c4ccoc4)[C@]3(C)CCC21 (stereo partly drawn) was 0.957 (inactive)

Reported normalized growth for C[C@@H]1CC[C@@]23CCC4(C)[C@@](C=CC5[C@@]6(C)CCC(=O)C(C)(C)C6CC[C@]54C)(OC2=O)C3[C@H]1C (stereo partly drawn) was 1.1 [resistant] (active)

----------
Parameter normalized growth: see the listing below.
Test: chemical genetic growth profiling, strain panel (AID 1159580);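 also: tested at 20 µM; growth read once vehicle control cultures reached saturation at 30 °C; 1 = growth at the plate median or of vehicle wells; lower values mean less growth of the strain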
Settings: S. cerevisiae deletion strains, growth OD, locus YOR316C, strain cot1, active compounds read low
In all, about 5,500 compounds went through this assay and about 2,000 (36%) were called active. Another 18% or so got no clear call; they are omitted. This is one part of the list.
Form field (numeric): enter value without unit.

>  <compound>
COC1=CC(C)[C@@H]2C[C@H]3OC(=O)C[C@H]4C(C)=C(OC)C(=O)C([C@@]34C)[C@@]2(C)C1=O (stereo partly specified)

>  <normalized growth>
1.01

$$$$
>  <compound>
COc1ccc(-c2cc(=O)c3c(O)cc(O)cc3o2)cc1O

>  <normalized growth>
0.989

$$$$
>  <compound>
CCn1nc(C(=O)O)c(=O)c2cc3c(cc21)OCO3

>  <normalized growth>
1.02

$$$$
>  <compound>
COc1cc(C)c2c(=O)c3c(O)cc(OC)cc3oc2c1

>  <normalized growth>
0.982

$$$$
>  <compound>
CCCCCC(O)C1C(=O)OC(C)C(O)/C=C/C=C/C=C/C=C/C=C(\C)C(O)CC(O)CC(O)CC(O)CC(O)CC(O)CC1O (stereo unspecified)

>  <normalized growth>
1.02

$$$$
>  <compound>
CC(=O)N1CCN(c2ccc(OCC3CO[C@](Cn4ccnc4)(c4ccc(Cl)cc4Cl)O3)cc2)CC1 (stereo partly specified)

>  <normalized growth>
0.0844

$$$$
>  <compound>
O=C(O)c1ccccc1O

>  <normalized growth>
1.02

$$$$
>  <compound>
COC(=O)C(N)CS (stereo unspecified)

>  <normalized growth>
0.987

$$$$

Reported normalized growth for COc1cc(C(=O)O)cc(OC)c1OC was 1.02

Reported normalized growth for COc1c(O)cc2c(c1O)[C@H]1O[C@H](CO)[C@@H](O)[C@H](O)[C@@H]1OC2=O was 1.01

Reported normalized growth for COC1=CC(=O)C=C(OC)C1=O was 0.986

# credit: PubChem BioAssay AID1159580
